- System: SNB-75 CNS
- METHOD NOTES: NCI tumour cell line growth inhibition, 48 h
MEASURED PARAMETER: TGI

COMPOUND | MEASUREMENT TARGET | OBSERVED
Cc1ccc2c(sc(-c3ccc4c(c3)sc(-c3ccc5c(c3)sc(-c3ccc(N(C)C)cc3)[n+]5C)[n+]4C)[n+]2C)c1S(=O)(=O)O (tested in a mixture with another compound) | SNB-75 CNS | > 100 µM
O=C(O)c1ccc(S(=O)(=O)Nc2ccc3oc4c(c3c2)C(=O)CCC4)cc1 | SNB-75 CNS | > 100 µM
COC1=CC23CCCN2CCc2cc4c(cc2C3C1O)OCO4 (stereo not drawn) | SNB-75 CNS | > 100 µM
CCN(CC)CCCC(C)Nc1nc(C)cc(Nc2ccc3nc(C)cc(N)c3c2)n1 (stereo not drawn) | SNB-75 CNS | > 100 µM
O=S(=O)(N/N=C/c1cccc(Cl)c1Cl)c1ccccc1 | SNB-75 CNS | > 100 µM
O=C(/C=N/O)Nc1cc(Cl)c(Cl)cc1Cl | SNB-75 CNS | 66.6 µM
N#CSc1c[nH]c2ccc(/C=C/C(=O)/C=C(/C=C/c3ccc4[nH]cc(SC#N)c4c3)OB(F)F)cc12 | SNB-75 CNS | 11.1 µM
N=c1c2c(=S)n(-c3ccccc3)c(=S)n(-c3ccccc3)c2nc(SCCCN2CCN(c3cccc(Cl)c3)CC2)n1-c1ccccc1 | SNB-75 CNS | > 100 µM
COC(C(=O)C(O)C(C)O)C1CC2C=C3C=C(OC4CC(OC5CC(O)C(OC)C(C)O5)C(OC(C)=O)C(C)O4)C(C)C(=O)C3=C(O)C2=C(O)C1OC1CC(OC2CC(OC3CC(C)(O)C(OC(=O)C(C)C)C(C)O3)C(O)C(C)O2)C(O)C(C)O1 (stereo not drawn) | SNB-75 CNS | < 0.01 µM
CN1C(=O)[C@@H](NC(=O)[C@H](CCC(F)(F)F)[C@H](CCC(F)(F)F)C(N)=O)N=C(c2ccccc2)c2ccccc21 | SNB-75 CNS | > 100 µM
O/N=C1/C(=C/c2ccc(Oc3ccccc3)cc2)CCCC1C(NO)c1ccc(Oc2ccccc2)cc1 (stereo not drawn) | SNB-75 CNS | > 100 µM
Cc1ccc(S(=O)(=O)N2C[C@](O)(c3ccccc3)[C@H]2C)cc1 | SNB-75 CNS | > 100 µM
CCCC(=O)O[C@H]1C=C2C[C@@]34SS[C@]5(CC6=C[C@H](OC(C)=O)[C@@H]7O[C@@H]7[C@H]6N5C3=O)C(=O)N4[C@@H]2[C@H]2O[C@H]21 | SNB-75 CNS | 0.331 µM
CN(CC#N)C1CCCC[C@H]1O (stereo partly drawn) | SNB-75 CNS | > 100 µM
COc1cc(/C=C/c2cc(/C=C/c3ccc(O)c(OC)c3)nc(N)n2)ccc1O | SNB-75 CNS | 3.34 µM
CC1=CCC2C3(C)CCC2(C(C)C)C1C3 (stereo not drawn) (tested in a mixture with another compound) | SNB-75 CNS | 77.5 µM
Cc1nccc2c3ccc(OCc4cn(-c5ccc(Cl)cc5)nn4)cc3n(CCCc3ccccc3)c12 | SNB-75 CNS | 1.57 µM
CC(C)OP(=O)(OC(C)C)/C(C#N)=C/c1ccco1 | SNB-75 CNS | > 100 µM

# credit: PubChem BioAssay (NCI)
